Where these numbers come from: a melting point compilation (Tetko et al.; mined from patent text by program, amines drawn as free bases though some values may be those of a salt)

Quick list: melting point per entry.
MEASURED_PROPERTY: melting point

INSERT INTO assay_data (molecule, obs_value) VALUES
  ('CCOS(=O)(=O)c1ccc(-c2ccc(CCl)cc2)cc1', '112 to 116 °C'),
  ('CCOc1cc2ncc(C#N)c(Nc3ccc(OCc4ccccc4)c(Cl)c3)c2cc1NC(=O)CC(CN(C)C)N(C)C (centres undefined)', '102 to 104 °C'),
  ('COc1ccc2c(c1)N=C(N1CCN(C)CC1)c1cccc3c1N2CC3', '152 to 155 °C'),
  ('CCCc1cc(O)cc2nc(-c3ccc(O)cc3)oc12', '110 to 112 °C'),
  ('CC(C)c1nn(-c2ncc(C(F)(F)F)cn2)cc1CCCO', '98 to 99 °C'),
  ('COc1ccc2c(c1OC)SCCC2C#N (centres undefined)', '116 to 118 °C'),
  ('CC(C)[C@H](CC1C(=O)OC(C)(C)OC1=O)NC(=O)OC(C)(C)C', '108 to 112 °C'),
  ('CN(C(=O)CBr)c1ccc(OCC(=O)N[C@@H](CC(N)=O)C(=O)N[C@@H](Cc2ccccc2)[C@H](O)C(=O)N2CCC[C@H]2C(=O)NC(C)(C)C)cc1', '116 to 122 °C'),
  ('CCC1(C)CC(NC(=O)c2ccccc2C(=O)O)C(C)C(C)(CC)N1 (centres undefined)', '196 to 197 °C');

----------
MEASURED_PROPERTY: melting point

INSERT INTO results (compound, obs_value) VALUES
  ('N#Cc1cc2ccccc2cc1O', '188 to 189 °C'),
  ('O=C1NC(=O)c2cc(Nc3ccc(O)c(O)c3)c(Nc3ccccc3)cc21', '204 to 205 °C'),
  ('COC(=O)CCn1cnc2c(Cl)ncnc21', '93.5 °C'),
  ('O=Cc1cc(=O)n2ccsc2n1', '184 to 186 °C'),
  ('CCOC(=O)c1c(OCc2ccccc2)cc(C(F)(F)F)nc1C(F)(F)F', '56 to 58.5 °C'),
  ('CNC(=O)c1cc(N(C)C)ccc1Nc1nc(Nc2cc3c(cc2OC)CCN(CC(=O)N(C)C)CC3)ncc1Cl', '96 to 110 °C'),
  ('CC(C)(O)C1CCC(CNC(=O)c2cccnc2Oc2ccc(F)cc2)CC1 (stereo unspecified)', '78 to 80 °C'),
  ('CC1Cc2cc(OCc3ccccc3)c(Cl)c(Cl)c2C1=O (stereo unspecified)', '153 to 155 °C'),
  ('COCCn1c(S(C)=O)nc(-c2ccc(F)cc2)c1-c1ccnc(Nc2ccccc2)c1 (stereo unspecified)', '83 to 85 °C'),
  ('CCn1c(=O)c2[nH]c(/C=C/c3ccc(Br)cc3)nc2n(CC)c1=O', '> 270 °C'),
  ('Nn1cc(Cl)c(=O)[nH]c1=O', '224 to 225 °C'),
  ('CC(c1ccccc1)c1ccc(N)c([N+](=O)[O-])c1 (stereo unspecified)', '96 to 98 °C'),
  ('Cc1nn(C)c(C)c1-c1cncc(OC2SCC(O)C(O)C2O)c1 (stereo unspecified)', '174 °C'),
  ('CC(C)(O)[C@@H](N)c1ccc2ccccc2c1', '77 to 78 °C'),
  ('CC1(c2cc(-c3nc4ccc(OCc5ccccc5)cc4[nH]3)ccc2OCc2ccccc2)CCCCC1', '209 °C'),
  ('CC(C)(C)OC(=O)N1CCN(c2ccc(NC(=O)Nc3cc(Cl)ccc3N)cc2)CC1', '187 to 189 °C'),
  ('C#Cc1cn(C2CC(N=[N+]=[N-])C(COC(c3ccccc3)(c3ccccc3)c3ccccc3)O2)c(=O)[nH]c1=O (stereo unspecified)', '110 °C'),
  ('COc1ccc(-c2cc(=O)n(C(C)C)nc2-c2ccc(OC)cc2)cc1', '128 to 129 °C'),
  ('Oc1ccc(OCc2ccccc2)c(F)c1', '80 to 82 °C'),
  ('CCCC(=O)NCc1c(-c2ccc(C)cc2)nc2ccc3ccccc3n12', '238 to 239 °C'),
  ('Cn1nc2nc(C(C)(C)C)[nH]c(=O)c2c1N(S(C)(=O)=O)S(C)(=O)=O', '258 to 259 °C'),
  ('CNC(=O)C(Cc1ccc(OC)cc1)NC(=O)C(CC(C)C)C(CC(=O)OC)SC(C)=O (stereo unspecified)', '118 to 135 °C'),
  ('Cc1ccc(NC(=O)N(C)Cc2cccc3c2C(=O)N(C2CCC(=O)NC2=O)C3=O)cc1 (stereo unspecified)', '> 260 °C'),
  ('CCCn1nc(-c2ccc(OC(=O)CC(C)(C)C)c(F)c2)c2cccc(Cl)c21', '58 to 59 °C'),
  ('CCOP(=O)(CC(=O)Nc1cc2c(Nc3ccc(OCc4ccccn4)c(Cl)c3)ncnc2cn1)OCC', '113 to 116 °C'),
  ('CC(C)N(CCSc1ccc(Cl)cc1)C(=O)Oc1ccccc1', '54 to 56 °C'),
  ('CNC(=O)c1cccc(CNc2n[nH]c3ncnc(Nc4cccc(Cl)c4)c23)c1', '252 to 254 °C'),
  ('CCCn1c(CCOC)nc2c(N)nc3cc(OC4CCN(C(=O)C(C)C)CC4)ccc3c21', '165 to 166 °C'),
  ('O=S(=O)(CCCCl)NC1CC1', '48 to 49.5 °C'),
  ('N#Cc1cccc(C(Cl)(Cl)Cl)c1Cl', '106 to 107 °C'),
  ('O=C1CC(=CN2CCOCC2)Oc2c(O)cccc21', '202 °C'),
  ('CC(=O)NCc1ncccc1OCc1ccccc1', '94 to 96 °C'),
  ('CC(=O)c1c[nH]c(-c2ccccc2)n1', '158 °C'),
  ('CCOC(=O)C1(F)C(=O)NC(=O)NC1N1CCCCC1 (stereo unspecified)', '149 to 150 °C'),
  ('O=C(N[C@@H](Cc1ccccc1)C(=O)O)OCC1c2ccccc2Oc2ccccc21', '143 to 145 °C'),
  ('CSc1cccc(C2CC(=O)C=C(O)C2)c1 (stereo unspecified)', '141 °C'),
  ('Clc1ccc2c(Nc3ccccc3)ccnc2c1', '207 °C'),
  ('CC(=O)Nc1cccc(NC(=O)NC2N=C(c3ccccc3F)c3ccccc3N(CC(=O)N3CC4CCC(CC4)C3)C2=O)c1 (racemic)', '207 to 215 °C'),
  ('CC(=O)OCC1CC(n2c(Br)nc3cc(Cl)c(Cl)cc32)C(OC(C)=O)C1OC(C)=O (stereo unspecified)', '156 to 159 °C'),
  ('CC(C)=CCC(C(=O)O)C(=O)N(Nc1ccccc1)c1ccccc1 (stereo unspecified)', '166 °C'),
  ('O=C(O)Cc1ccc(CC2(CNS(=O)(=O)c3ccccc3)CCCC2)cc1', '154 to 156 °C');

----------
MEASURED_PROPERTY: melting point

INSERT INTO measurements (chemical_string, obs_value) VALUES
  ('COc1ccccc1N1CCN(S(=O)(=O)c2ccc(Nc3ccnc4cc(C(F)(F)F)ccc34)cc2)CC1', '146 to 148 °C'),
  ('C=c1oc(=O)c(=O)oc1=C', '44 °C'),
  ('Oc1ccc(OCc2ccccc2)c2c1OCCO2', '131 °C'),
  ('CCN(CC)CCSC1=C(C#N)C(c2ccccn2)(c2ccccn2)C(=O)N1', '135 to 136 °C'),
  ('CC(C)c1nc(CCOC2=CCCCCCCCCCC2)n(C)c1Sc1cc(Cl)cc(Cl)c1', '96 to 102 °C'),
  ('O=C(Cc1ccccc1)c1ccc[nH]1', '92 to 94 °C');

----------
Quick list: melting point per entry.
MEASURED_PROPERTY: melting point

INSERT INTO results (molecule, measured_property, obs_value) VALUES
  ('O=C(N1CCCN(C(=O)C(F)(F)F)CCN(C(=O)C(F)(F)F)CCCN(C(=O)C(F)(F)F)CC1)C(F)(F)F', 'melting point', '217 to 218 °C'),
  ('CN(C)C=C(C#N)C(=O)Nc1c(F)cccc1F', 'melting point', '180 to 181 °C'),
  ('COc1cc(C(=O)Nc2c(C)cc3cn(C(=O)OC(C)(C)C)nc3c2C(=O)NC(C)C)n(N2C=CC=C(Cl)C2)n1', 'melting point', '161 to 162 °C'),
  ('Cc1cc(C2(C(F)(F)F)CC(c3ccc(F)cc3)=NO2)ccc1N (centres undefined)', 'melting point', '108 to 110 °C'),
  ('COC(C)(CC(=O)NC12CC3CC(CC(C3)C1)C2)OC', 'melting point', '140 °C'),
  ('CCC(=CC(COC(N)=O)=NO)C(C)[N+](=O)[O-] (centres undefined)', 'melting point', '69 to 72 °C'),
  ('CCCCC[C@H]1CC[C@H](c2cnc([C@H]3CC[C@H](C#N)CC3)nc2)CC1', 'melting point', '110 °C'),
  ('Cc1nccnc1C(=O)Nc1ccccc1-c1ccc(OC(F)(F)F)cc1', 'melting point', '120 to 121 °C'),
  ('Fc1nc(Oc2ccc(CCNc3ncnc4nccnc34)cc2)c(F)c(C(F)(F)F)c1F', 'melting point', '103 to 108 °C');
